Target: full-length recombinant human or mouse PAD4 (Example 4; which of the two is not told for the result)
Assay: cell-based or functional assay
Readout Type: Relative citrullination activity

Task item: Entry H7 (antibody, IgG1, V domains shown, Chicken variable regions in mouse chimeric antibody (IgG1) expression vectors; also called anti-PAD4 antibody H7; A11 etc) VH: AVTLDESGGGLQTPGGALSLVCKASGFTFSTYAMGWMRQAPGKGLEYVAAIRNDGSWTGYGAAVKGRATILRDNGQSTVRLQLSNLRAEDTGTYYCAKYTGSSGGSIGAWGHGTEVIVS VL: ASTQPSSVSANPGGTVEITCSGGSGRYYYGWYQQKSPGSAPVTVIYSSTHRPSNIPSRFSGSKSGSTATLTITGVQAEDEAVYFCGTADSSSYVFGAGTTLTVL : reported Relative citrullination activity = ?
Reply: 35 relative to PBS = 100

Data origin: patent US20230192890A1
